Cited source for all entries: patent US8906925B2

SUBJECT_OF_TEST: human dopamine D2L receptor (Homo sapiens)
Sequence (P14416 whole entry): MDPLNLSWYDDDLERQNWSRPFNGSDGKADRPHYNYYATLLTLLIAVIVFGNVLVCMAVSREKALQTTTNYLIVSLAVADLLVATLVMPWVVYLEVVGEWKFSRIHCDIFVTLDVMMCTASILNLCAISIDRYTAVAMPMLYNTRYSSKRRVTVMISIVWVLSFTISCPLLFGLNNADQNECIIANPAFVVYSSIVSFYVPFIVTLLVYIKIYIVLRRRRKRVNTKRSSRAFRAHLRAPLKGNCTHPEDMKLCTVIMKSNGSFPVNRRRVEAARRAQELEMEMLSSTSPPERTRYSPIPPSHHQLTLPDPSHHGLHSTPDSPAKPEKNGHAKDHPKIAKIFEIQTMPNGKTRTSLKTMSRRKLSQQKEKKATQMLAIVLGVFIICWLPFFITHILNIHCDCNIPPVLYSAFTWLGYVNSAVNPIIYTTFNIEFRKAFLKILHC
METHOD: Dopamine D2L radioligand binding ([3H]Spiperone)
ASSAY_CONDITIONS: compound at 1 μM; […] [3H]Spiperone; read-out: Inhibition of ligand binding, Dopamine D2L (percent inhibition of specific binding)
MEASURE_NAME: inhibition at 1 µM (%)

Here are 10 compounds together with their reported answers.
C=C(Cn1c2c(c3cccc(F)c31)CN(C)CC2)c1ccc(F)cc1 : 92
C/C(=C\n1c2c(c3cc(C)ccc31)CN(C)[C@H](C)C2)c1ccncc1 : 97
C/C(=C\n1c2c(c3cc(C)ccc31)CN(C)CC2)c1cc(C)nc(C)c1 : 73
CNC(=O)c1ccc2c(c1)c1c(n2C#Cc2ccc(F)cc2)CCN(C)C1 : 37
Cc1ccc2c(c1)c1c(n2C#Cc2cncn2C)CCN(C)C1 : 14
CCCc1ccc(C#Cn2c3c(c4cc(Cl)ccc42)CN(C)CC3)cn1 : 17
COc1c(F)cc(/C(C)=C/n2c3c(c4cc(C)ccc42)CN(C)CC3)cc1F : 80
CN1CCc2c(c3cc(Cl)ccc3n2C#Cc2ccc(Cl)cc2)C1 : 18
C/C=C(\Cn1c2c(c3cc(C)ccc31)CN(C)CC2)c1ccncc1 : 27
CO/C(=C\n1c2c(c3cc(C)ccc31)CN(C)CC2)c1ccncc1 : 60

(1) C/C=C(/c1ccccc1)n1c2c(c3cc(C)ccc31)CN(C)CC2
(2) C/C(=C\n1c2c(c3cc(C)ccc31)CN(CCF)CC2)c1ccncc1
(3) C/C(=C/c1ccccc1)n1c2c(c3cc(C)ccc31)CN(C)CC2
(4) C/C(=C\n1c2c(c3cc(Cl)ccc31)CN(C)CC2)c1ccsc1
(5) CC(=O)CN1CCc2c(c3cc(C)ccc3n2/C=C(\C)c2ccncc2)C1
Rank the 5 compounds: largest inhibition at 1 µM first, smallest last. Rank them, then answer with their labels in that order.
4, 2, 1, 3, 5

(A) C/C(=C\n1c2c(c3cc(Cl)ccc31)CN(C)CC2)c1cnc(C)cn1
(B) CC(=O)N(C)c1ccc2c(c1)c1c(n2/C=C(\C)c2ccc(F)cc2)CCN(C)C1
Which entry has a larger number for inhibition at 1 µM, A or B ? Identify your selection by its label.
B
